Source: patent US20240067696A1

Target: human glucagon receptor (human, UniProt P47871 26-477)
Sequence (P47871 26-477): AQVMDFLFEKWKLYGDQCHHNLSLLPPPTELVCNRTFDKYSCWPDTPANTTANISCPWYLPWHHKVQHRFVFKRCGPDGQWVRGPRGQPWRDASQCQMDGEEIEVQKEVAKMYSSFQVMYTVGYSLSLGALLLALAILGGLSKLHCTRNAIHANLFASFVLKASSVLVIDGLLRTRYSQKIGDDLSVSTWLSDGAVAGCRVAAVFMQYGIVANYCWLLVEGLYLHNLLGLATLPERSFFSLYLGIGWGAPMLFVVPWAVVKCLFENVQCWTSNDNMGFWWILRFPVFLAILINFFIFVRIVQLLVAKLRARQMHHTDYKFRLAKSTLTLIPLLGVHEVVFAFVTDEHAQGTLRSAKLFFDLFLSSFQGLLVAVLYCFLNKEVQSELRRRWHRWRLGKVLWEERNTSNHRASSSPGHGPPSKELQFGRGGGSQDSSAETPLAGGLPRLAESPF
Experiment: cell-based or functional assay
Outcome measure: GCG-R EC50 in vitro [nM] (cAMP, AlphaScreen, HEK293 cells expressing human Glucagon-R) (nM)

Binder | Obs value
H-HSQGTFTSDYSKYLDSARAEDFVKWLEET-OH [Compound 2] | 0.18
H-HSQGTFTSDYSKYLDEARAKSFVEWLEKT-OH [Compound 27] | 0.063
H-HSQGTFTSDYSKYLDEARAKSFVEWLEST-OH [Compound 28] | 0.035
H-HSQGTFTSDYSKYLDSARAEDFVKWLES-OH [Compound 13] | 0.07
